Recorded inhibition by entry
Test: coupled detection enzyme interference, dose response, artefact control for MgcRacGAP inhibitor project, biochemical, coupled enzyme counter-screen (AID 624351);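 further: signal is the ADP detection kit reading of free GDP without any GAP enzyme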;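 on inhibition: 0% = median positive control wells and 100% = median negative control wells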
Conditions: ADP Hunter coupled enzyme counter-screen, fluorescence, no MgcRacGAP; series mostly up to 80 µM
In all, about 2,400 compounds went through this assay and about 1,400 (58%) were called active. So high a share suggests a set chosen from earlier hits. The list shows a part of the results.

Worked set:
| structure | inhibition |
| --- | --- |
| Cc1ccc(C)n1/N=C1/NC(=O)CS1 | -5.01% [at 10 µM] (inactive) |
| COc1cc(OC)c(C2Nc3cccc4cccc(c34)N2)c(OC)c1 | -13.7% [at 5 µM] (inactive) |
| CCOc1c(Cl)cc(CNc2ccc(N3CCCC3)cc2)cc1OC | -9.27% [at 5 µM] (inactive) |

Problem: So what's the measured inhibition for this one? `NNc1ccc([N+](=O)[O-])c2[nH][nH]c(=O)c12`
Result: -1.61% [at 10 µM] (inactive)

Problem: Find the recorded inhibition belonging to `CN(C)c1ncc(C2=C(Cl)C(=O)C(N3CCCC3)=C(Cl)C2=O)s1` and report it.
Result: -12.5% [at 10 µM] (inactive)

Problem: Given the molecule `CN(C)CCCNCC(=O)c1c(-c2ccccc2)n(C)c2ccccc12` , what is its reported inhibition?
Result: -1.7% [at 10 µM] (inactive)

###

Assay: coupled detection enzyme interference, dose response, artefact control for MgcRacGAP inhibitor project, biochemical, coupled enzyme counter-screen (AID 624351);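 further: signal is the ADP detection kit reading of free GDP without any GAP enzyme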
Conditions: ADP Hunter coupled enzyme counter-screen, fluorescence, no MgcRacGAP; series mostly up to 80 µM
In all, about 2,400 compounds went through this assay and about 1,400 (58%) were called active.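 How the source made its calls: active means inhibition of 30% or more at any tested dose; inconclusive means primary hits over the limit that were never retested; inactive means the rest.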 So high a share suggests a set chosen from earlier hits. This is one part of the list.
Pick from active, inactive when you respond.

The following compounds have reported results that may help.
| compound | assigned_label |
| --- | --- |
| O=C(NC(=S)Nc1cccc2c(O)cccc12)c1ccco1 | active |
| CCOc1ccc(Nc2n[nH]c(=S)s2)cc1 | active |
| COc1cccc(Nc2ccc(N3CCCCC3)cc2)c1OC | active |
| Cc1cc(C)nc(N/N=C/c2c[nH]c3ccccc23)n1 | active |
| COc1ccc(C)cc1NCc1cccc(OC)c1OC | active |

Problem: What outcome does the record of this test show for `CCCC(=O)NC(=S)Nc1cccc2c(O)cccc12` ?
Result: active

Problem: How did this test come out for CC1=NN(c2ccccc2)C(=O)C1/C=C1\NC(=S)NC1=O (stereo not given) ?
Result: inactive

Problem: Recorded test call requested for `C(=N\Nc1nc2ccccc2[nH]1)/c1c[nH]c2ccccc12`
Result: active

Problem: Write down the call the test reported for this compound. Item: `CCN1CCN(CCCOc2ccc(Cl)cc2Br)CC1`
Result: inactive

Problem: Outcome? `COc1cccc(CNc2ccc(N3CCCCC3)cc2)c1OC`
Result: active

Problem: Test call for this compound, please: `COc1cc(-c2cc(-c3ccc(F)cc3)nc(N)c2C#N)ccc1O`
Result: inactive

Problem: Just curious, what result did `COc1cccc(CN2CCN(C(=O)c3ccco3)CC2)c1OC` get here?
Result: inactive

###

Test: coupled detection enzyme interference, dose response, artefact control for MgcRacGAP inhibitor project, biochemical, coupled enzyme counter-screen (AID 624351);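 further: signal is the ADP detection kit reading of free GDP without any GAP enzyme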
Conditions: ADP Hunter coupled enzyme counter-screen, fluorescence, no MgcRacGAP; series mostly up to 80 µM
In all, about 2,400 compounds went through this assay and about 1,400 (58%) were called active.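 How the source made its calls: active means inhibition of 30% or more at any tested dose; inconclusive means primary hits over the limit that were never retested; inactive means the rest.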 The set was probably picked from earlier hits. Some of the results follow.
Answer with one of the outcomes label 1 = active, label 0 = inactive

Recorded results for 4 compounds are shown here.
| structure | assigned_label |
| --- | --- |
| O=[N+]([O-])c1cccc(CN2CCN(c3cccc4[nH]ccc34)CC2)c1 | label 1 |
| CC(C)C(=O)Nc1ccc(Nc2ccccc2)cc1 | label 1 |
| CC(=O)Nc1ccc(S(=O)(=O)Nc2ccc(Nc3ccccc3)cc2)cc1 | label 1 |
| COc1ccc(/C=N/Nc2nc(N3CCCC3)nc(N3CCCC3)n2)cc1O | label 1 |

Problem: Which outcome was entered for the compound `O=C(c1ccco1)N1CCN(Cc2cccc([N+](=O)[O-])c2)CC1` in this test?
Result: label 0

Problem: Entry `O=[N+]([O-])c1cccc(CN2CCN(Cc3ccco3)CC2)c1` : call = ?
Result: label 0
